- Test system: anti-Psl mAb WapR-016 (class III)
- ASSAY: ELISA, class III mAb WapR-016 binding to oligosaccharide-BSA conjugates
- ASSAY CONTEXT: oligosaccharide-BSA conjugate coated on plate; mAb 5 μg/mL

| COMPOUND | ELISA reactivity with WapR-016 |
| --- | --- |
| CC1O[C@@H](OC2C(O)[C@H](OCN)OC(CO)[C@H]2O)C(O)C(O[C@@H]2OC(CO)[C@@H](O)C(O[C@@H]3OC(CO)[C@@H](O)C(O)C3O[C@H]3OC(CO)[C@@H](O)C(O)C3O)C2O)[C@H]1O (stereo partly shown) | did not bind |
| CC1O[C@@H](OC2C(O)[C@H](OCN)OC(CO)[C@H]2O)C(O)C(O[C@@H]2OC(CO)[C@@H](O)C(O[C@@H]3OC(CO)[C@@H](O)C(O)C3O)C2O)[C@H]1O (stereo partly shown) | did not bind |
